Reported IC50 values are given for each entry in this list.
Target: Human NK1 Receptor (Homo sapiens, UniProt P25103)
Construct: endogenous in cells; host or cells: Human lymphoma IM9 cells (whole cells)
Sequence (P25103 whole entry): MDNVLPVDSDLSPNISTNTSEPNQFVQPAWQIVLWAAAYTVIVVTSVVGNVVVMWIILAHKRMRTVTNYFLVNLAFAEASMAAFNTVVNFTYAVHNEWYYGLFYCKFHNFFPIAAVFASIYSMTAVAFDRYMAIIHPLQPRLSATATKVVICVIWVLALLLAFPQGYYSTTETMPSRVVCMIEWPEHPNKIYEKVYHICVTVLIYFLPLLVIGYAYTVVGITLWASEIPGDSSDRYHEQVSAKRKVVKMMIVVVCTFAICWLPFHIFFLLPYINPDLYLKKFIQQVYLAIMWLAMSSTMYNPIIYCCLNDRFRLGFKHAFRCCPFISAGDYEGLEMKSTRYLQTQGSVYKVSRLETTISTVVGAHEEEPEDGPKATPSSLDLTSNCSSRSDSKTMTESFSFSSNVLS
Experiment: In Vitro Human NK1 Receptor Binding Assay ([125I]Bolton-Hunter substance P displacement, IM9 cells)
Conditions: Table 5; [125I]Bolton-Hunter substance P displacement, human IM9 cells; read-out: IC50 (nM) hNK1
quantity_measured: IC50 (nM)

- compound: "CC(NC(=O)C(Cc1c[nH]c2ccccc12)NCc1ccccn1)c1ccccc1 (centres unmarked)"
  bound_sign: ">"
  assay_result: 10000
- compound: "CC(NC(=O)C(Cc1c[nH]c2ccccc12)NCc1cccc(OCc2ccccc2)c1)c1ccccc1 (centres unmarked)"
  bound_sign: ">"
  assay_result: 10000
- compound: "CC(NC(=O)C(Cc1c[nH]c2ccccc12)NCC1CSc2c([nH]c3ccccc23)C1=O)c1ccccc1 (centres unmarked)"
  bound_sign: ">"
  assay_result: 10000
- compound: "CC(NC(=O)C(Cc1c[nH]c2ccccc12)NCc1ccc2c(c1)OCO2)c1ccccc1 (centres unmarked)"
  bound_sign: "="
  assay_result: 240
- compound: "CC(NC(=O)C(Cc1c[nH]c2ccccc12)NCCCc1cccc2ccccc12)c1ccccc1 (centres unmarked)"
  bound_sign: "="
  assay_result: 500
- compound: "COC(=O)c1ccc(CNC(Cc2c[nH]c3ccccc23)C(=O)NC(C)c2ccccc2)cc1 (centres unmarked)"
  bound_sign: "="
  assay_result: 1910
- compound: "CCOC(=O)Nc1ccccc1CNC(Cc1c[nH]c2ccccc12)C(=O)NC(C)c1ccccc1 (centres unmarked)"
  bound_sign: "="
  assay_result: 236
- compound: "CC(NC(=O)C(Cc1c[nH]c2ccccc12)NCC(=Cc1ccccc1)c1ccccc1)c1ccccc1 (centres unmarked)"
  bound_sign: ">"
  assay_result: 10000
